Here the recorded pIC50 is given for each entry.
Target: KRAS G12C (GMPPNP-loaded) and cRAF (Ras-binding domain) interaction (Homo sapiens, UniProt P01116, C118S/C51S/C80L/G12C)
Construct: truncated version comprising amino acids 1-169
Sequence (P01116 1-169 isoform P01116-2 G12C/C51S/C80L/C118S): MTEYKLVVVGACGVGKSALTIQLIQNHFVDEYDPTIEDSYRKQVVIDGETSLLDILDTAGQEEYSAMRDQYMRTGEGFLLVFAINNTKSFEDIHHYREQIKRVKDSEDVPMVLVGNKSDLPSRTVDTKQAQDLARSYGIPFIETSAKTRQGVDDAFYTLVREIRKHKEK
Assay: AlphaScreen inhibition of KRAS G12C and cRAF binding
Conditions: KRAS G12C preloaded with GTP analogue GMPPNP, 2 hours preincubation
pIC50: −log10 of the molar value.

# get_value(readout='pIC50', item= C[C@@H](/C=C/C(=O)N1CCN(c2nc(OC[C@@]34CCCN3C[C@H](F)C4)nc3c(F)c(-c4cccc(Cl)c4C(F)(F)F)ncc23)C[C@@H]1CC#N)N(C)C ) ≤ 6.30

# get_value(readout='pIC50', item= C[C@H](/C=C/C(=O)N1C[C@H](F)[C@@H](N(C)c2nc(OC[C@@]34CCCN3C[C@H](F)C4)nc3c(F)c(-c4cccc5cccc(Cl)c45)ncc23)C1)N(C)C ) 7.00 to 8.00

# get_value(readout='pIC50', item= C[C@@H](/C=C/C(=O)N1CCN(c2nc(OC[C@@]34CCCN3C[C@H](F)C4)nc3c(F)c(-c4cccc5cccc(Cl)c45)ncc23)C[C@@H]1CC#N)N1CC2CCC(C1)O2 ) 6.30 to 7.00

# get_value(readout='pIC50', item= C[C@H](/C=C/C(=O)N1CCN(c2nc(OC[C@@]34CCCN3C[C@H](F)C4)nc3c(F)c(-c4cccc(Cl)c4C4CC4)ncc23)C[C@@H]1CC#N)N(C)C ) 7.00 to 8.00

# get_value(readout='pIC50', item= CC(/C=C/C(=O)N1CCN(c2nc(OC[C@@]34CCCN3C[C@H](F)C4)nc3c(F)c(-c4cccc5cccc(Cl)c45)ncc23)C[C@@H]1CC#N)N1CCOCC1 (some centres unmarked) ) 7.00 to 8.00
